- PROTOCOL_DESCRIPTION: Toxicity liver stage against HepG2, at 10uM
- Format: cell-based
- Parameters: test concentration 10 uM, cell line HepG2-A16-CD81EGFP
- APPLIED_CONDITIONS: human, HepG2-A16-CD81EGFP cells; read-out: INHIBITION
READOUT_KIND: cytotoxicity at 10 µM (%)
Give a bare numeral; the unit % is implied.

// known answers, use as guide
Entry CCn1ccnc1CN1CCC(N(Cc2ncc(C)o2)C(C)=O)C1 (stereo not given) , cytotoxicity at 10 µM reported as 11.5

Entry O=C1NC(C(=O)NCc2cccnc2Oc2ccc(F)cc2F)CO1 (stereo not given) , cytotoxicity at 10 µM reported as -1.32

Entry COCCN1C[C@@H]2[C@@H](OC)CCN(C(=O)Cc3ccccc3)[C@@H]2C1 , cytotoxicity at 10 µM reported as 3.5

Entry O=S(=O)(C1CC1)N1C[C@@H]2COC[C@]2(COc2ccccn2)C1 , cytotoxicity at 10 µM reported as 5.57

With those in mind, consider the next compound.
Entry Cc1csc2c(N3CCC(Cn4cc(C(C)(C)O)nn4)CC3)ncnc12 , cytotoxicity at 10 µM reported as 29.9

###

Listed here: items and their measured cytotoxicity at 10 µM.
- PROTOCOL_DESCRIPTION: Toxicity liver stage against HepG2, at 10uM
- Format: cell-based
- Parameters: test concentration 10 uM, cell line HepG2-A16-CD81EGFP
- APPLIED_CONDITIONS: human, HepG2-A16-CD81EGFP cells; read-out: INHIBITION
Give a bare numeral; the unit % is implied.

// known answers, use as guide
Entry Cc1nc(CN(C)C2CCN(Cc3c(C)noc3C)C2)no1 (stereo unspecified) , cytotoxicity at 10 µM reported as 6.66

Entry Cc1ccc(C(=O)N2C[C@H]3CCC[C@@]3(COCc3cccnc3)C2)s1 , cytotoxicity at 10 µM reported as 3.24

Entry CCCNc1ncc(CN2CCC3(CC2)CNC(=O)C3)cn1 , cytotoxicity at 10 µM reported as -7.07

Entry COc1ccc(NC(=O)c2cnc(N3CCN(C)CC3)nc2C)cc1 , cytotoxicity at 10 µM reported as -3.45

Entry COc1ccc(C2=NOC(C(=O)N3CCCc4ccccc43)C2)cc1 (stereo unspecified) , cytotoxicity at 10 µM reported as 0.863

Entry CCOc1ncccc1CNC(=O)c1c(C)oc(C)c1C , cytotoxicity at 10 µM reported as -3.75

Entry Cn1cc(C(=O)NCC2CCN(C(=O)NC3CCCCC3)CC2)cn1 , cytotoxicity at 10 µM reported as -4.92

Entry CC(C)CCN1C(=O)C2(NC(=O)c3ccccc3O2)c2ccccc21 (stereo unspecified) , cytotoxicity at 10 µM reported as 4.02

Entry O=c1c(NCCc2ccc(O)cc2)c(NCc2ccccn2)c1=O , cytotoxicity at 10 µM reported as -2.72

Entry CC(C)CN1CCCn2nc(CNC(=O)Cc3cccc(O)c3)cc2C1 , cytotoxicity at 10 µM reported as 4.69

With those in mind, consider the next molecule.
Entry Cc1ncncc1C(=O)Nc1cnn(CC(=O)NC2CCCC2)c1 , cytotoxicity at 10 µM reported as 4.88

###

- PROTOCOL_DESCRIPTION: Toxicity liver stage against HepG2, at 10uM
- Type: cell-based
- Set-up: test concentration 10 uM, cell line HepG2-A16-CD81EGFP
- APPLIED_CONDITIONS: human, HepG2-A16-CD81EGFP cells; read-out: INHIBITION
READOUT_KIND: cytotoxicity at 10 µM
The reply should consist of the numeric value with the unit placed after it.

// known answers, use as guide
Entry CC(=O)N1CCCC1c1cccc(Cc2ccccc2Cl)n1 (centres undefined) , cytotoxicity at 10 µM reported as 1.58%

Entry Cc1cc(C)n(CCCNC(=O)[C@@H](C)NC(=O)OC(C)(C)C)n1 , cytotoxicity at 10 µM reported as -8%

Entry CS(=O)(=O)NC[C@]12COC[C@H]1CN(Cc1ccc3c(c1)OCO3)C2 , cytotoxicity at 10 µM reported as -106%

Entry NCC(=O)N1CCCCC1c1ccc(F)cc1 (centres undefined) , cytotoxicity at 10 µM reported as -43.4%

Entry Cc1cccc2[nH]c(C3CCCN3Cc3ccc(CO)o3)nc12 (centres undefined) , cytotoxicity at 10 µM reported as 10.3%

Entry Cc1cc(S(=O)(=O)NC(=O)CCc2cncc(F)c2)c(C)s1 , cytotoxicity at 10 µM reported as -1.99%

Entry CC(C)C1CN(c2nccc(N)n2)CCC(=O)N1Cc1ccc(F)cc1 (centres undefined) , cytotoxicity at 10 µM reported as -5.04%

Entry NC(=O)CN1CCCC(C(=O)N2CCC(Oc3ncccn3)CC2)C1 (centres undefined) , cytotoxicity at 10 µM reported as -41.6%

Further cases:
Entry Cc1ccc(CN2C[C@@H]3C[C@H](C(=O)NCC4CC4)N(C)[C@@H]3C2)o1 , cytotoxicity at 10 µM reported as -3.63%

Entry OC(CNc1ncnc2c1CCNCC2)C(F)(F)F (centres undefined) , cytotoxicity at 10 µM reported as -4.92%

Entry CC(C(=O)N1CCN(Cc2ccncc2)CC1)n1cncn1 (centres undefined) , cytotoxicity at 10 µM reported as -4.73%

Entry C=C1c2ccccc2C(=O)N1CCC(=O)N1CCNC(=O)C1 , cytotoxicity at 10 µM reported as -4.12%

Entry Cc1cc(CN2C[C@@H]3CC[C@H]2CN(Cc2c(C)noc2C)C3)ccc1F , cytotoxicity at 10 µM reported as -6.74%

Entry O=C(NC[C@H]1OC[C@@H](NC2CCC2)[C@@H]1O)c1cccs1 , cytotoxicity at 10 µM reported as 1.76%

Entry COc1cc2c(cc1CN1CCCCC1CN1CCOCC1)CCC2 (centres undefined) , cytotoxicity at 10 µM reported as -4.57%

Entry CC(C)c1ccc(C2CC(=O)Nc3c2cnn3C)cc1 (centres undefined) , cytotoxicity at 10 µM reported as -2.9%

Entry CS(=O)(=O)CCC(=O)N1CCC2(CCCN(C3CCOCC3)C2=O)C1 (centres undefined) , cytotoxicity at 10 µM reported as -7.64%

Entry Cc1cc(NC(=O)C2CCN(c3ncccc3C#N)CC2)no1 , cytotoxicity at 10 µM reported as 3.54%

###

Listed here: items and their measured cytotoxicity at 10 µM.
- PROTOCOL_DESCRIPTION: Toxicity liver stage against HepG2, at 10uM
- Format: cell-based
- Parameters: test concentration 10 uM, cell line HepG2-A16-CD81EGFP
- APPLIED_CONDITIONS: human, HepG2-A16-CD81EGFP cells; read-out: INHIBITION
Give a bare numeral; the unit % is implied.

// known answers, use as guide
Entry CN(C(=O)Cc1ccccc1F)C1CCN(c2ccccn2)CC1 , cytotoxicity at 10 µM reported as -0.644

Entry c1csc(COC[C@H]2CCC[C@]23CN(Cc2ccoc2)CCO3)n1 , cytotoxicity at 10 µM reported as -67.3

Entry CC(=O)N1CCC(Cc2cnc(-c3c(C)nn(C)c3C)cn2)CC1 , cytotoxicity at 10 µM reported as -11.8

Entry CCS(=O)(=O)N1CCC2(CN(c3ccsc3)C(=O)CN2C)C1 (stereo not drawn) , cytotoxicity at 10 µM reported as 7.31

Entry Cc1ccc(O)c(CNCC(C)c2nc3ccccc3o2)n1 (stereo not drawn) , cytotoxicity at 10 µM reported as -1.74

Entry CCNc1cc2c(nn1)CCN(C(=O)CCc1c(C)noc1C)C2 , cytotoxicity at 10 µM reported as -2.47

Entry COc1cc(CN2CCN(CC3CC3)[C@@H]3CS(=O)(=O)C[C@@H]32)cc(OC)c1 , cytotoxicity at 10 µM reported as 1.41

Entry O=C(CC1CCCC1)N1C[C@@H]2C[C@@H]1CN2 , cytotoxicity at 10 µM reported as -0.714

Further cases:
Entry NC(=O)C1CCN(C(=O)c2ccn(-c3cccc(F)c3)n2)C1 (stereo not drawn) , cytotoxicity at 10 µM reported as -3.05

Entry CC(C)(C)CN1CCN(CC2CC2)C(CCO)C1 (stereo not drawn) , cytotoxicity at 10 µM reported as -2.42

Entry O=C(c1ccccn1)N1CCc2ncc(Cn3cccn3)n2CC1 , cytotoxicity at 10 µM reported as 5.44

Entry Fc1ccccc1CC1CCN(Cc2nccs2)CC1 , cytotoxicity at 10 µM reported as -6.92

Entry Cc1ccc(F)cc1-n1c(COC(C)C)n[nH]c1=O , cytotoxicity at 10 µM reported as 4.72

Entry Cc1ccc(C(=O)N2CCO[C@H]3[C@H](OCC4CCOCC4)CC[C@@H]32)o1 , cytotoxicity at 10 µM reported as 4.28

Entry COc1ccc(C2CCCN2C(=O)NCCCn2cccn2)cc1 (stereo not drawn) , cytotoxicity at 10 µM reported as 7.53

Entry CO[C@@H]1CC[C@H]2[C@H]1OCCN2C(=O)c1ccc(C)nc1 , cytotoxicity at 10 µM reported as -143

Entry CN(Cc1nc(N2CCCC2)ncc1-c1ccncc1)C(=O)C(C)(C)C , cytotoxicity at 10 µM reported as 6.58
